Where do these numbers come from? They come from PubChem BioAssay (NCI).

Tested on: PC-3 prostate
assay.explanation: NCI tumour cell line growth inhibition, 48 h
reported.property: log10(TGI) (log10 of the value in µM)
Base-10 log of TGI, unit µM.

Take a look at these entries with their results.
# compound, log10(TGI)
measured = [
    ("O=C(CCCCCCN1CC(=O)N2[C@@H](c3ccc(Cl)c(Cl)c3)c3[nH]c4ccccc4c3C[C@H]2C1=O)NO", 1.03),
    ("C[N+](C)(C)CC1CCCC1=O (stereo unspecified)", 0.46),
    ("COC(=O)CCCCC(=O)c1c(C)[nH]c(/C=C2\\N=C(c3ccc[nH]3)C=C2OC)c1C", 0.27),
]

Q. What does the data say about its log10(TGI)? Entry: Cc1nc2ccc(C(F)(F)F)cc2nc1NCc1ccc(Cl)c(Cl)c1
A. 1.41

Q. What does the data say about its log10(TGI)? Entry: O=C(CC1(O)C(=O)N(Cc2ccccc2)c2ccccc21)c1ccc(C(=O)NCC2CCC3(CC2)OOC2(CCCCC2)OO3)cc1 (stereo unspecified)
A. 0.69

Q. What does the data say about its log10(TGI)? Entry: Cc1cc(N(CCCNc2ccnc3cc(Cl)ccc23)Cc2ccco2)nc(N2CCN(C)CC2)n1
A. 1.24

Q. What does the data say about its log10(TGI)? Entry: C=C1CC(c2ccc(OCCCN3C(=O)c4ccccc4C3=O)cc2)OC1=O (stereo unspecified)
A. 1.04

Q. What does the data say about its log10(TGI)? Entry: COC1C(N)C(OC2C(Oc3cccc4c(O)c5c(=O)oc6ccc(C)c7c(=O)oc(c34)c5c67)OC(C)C(O)C2(C)O)OC(C)C1O (stereo unspecified)
A. 0.07

Q. What does the data say about its log10(TGI)? Entry: COc1cc2nc(-c3cc(F)ccc3O)nc(N[C@@H]3CNC[C@H]3C(C)(C)O)c2cc1OC
A. 0.76

Q. What does the data say about its log10(TGI)? Entry: C[N+]12C=CC=C1C(N1CCCC1)c1scc(-c3ccccc3)c12 (stereo unspecified)
A. 1.95

Q. What does the data say about its log10(TGI)? Entry: Oc1ccc2cc(Br)ccc2c1-c1c(O)ccc2ccc(Br)cc12
A. 1.40

Q. What does the data say about its log10(TGI)? Entry: Cc1cc(C)nc(SC2=C(Nc3cc(Cl)ccc3O)C(=O)N(Cc3ccccc3)C2=O)n1
A. 1.94

Q. What does the data say about its log10(TGI)? Entry: Oc1ccc(C(c2ccc(O)cc2)c2ccc(Br)cn2)cc1
A. -0.14

---

System: MDA-N
assay.explanation: NCI tumour cell line growth inhibition, 48 h
Overview of recorded TGI for various compounds

# compound, reported.property, observed.result
records = [
    ("C[N+](C)(C)CC1CCCC1=O (stereo not given)", "TGI", "3.21 µM"),
    ("COc1c(=O)cc2cc[nH]c3ccn(C)c1c23", "TGI", "> 100 µM"),
    ("COC(=O)c1cc2c(c3c1CC(Cc1ccccc1)C3=O)CCC2 (stereo not given)", "TGI", "> 100 µM"),
    ("COc1cc2c(c(O)c1OC)C(=O)[C@@H]1CCC(=O)N1C2", "TGI", "> 100 µM"),
    ("CCOC(=O)N1N=C(/C(C)=N/OC)C(C)S1=O (stereo not given)", "TGI", "> 100 µM"),
    ("N#Cc1c2c(c(N)oc1=O)C(c1ccccc1)CC(=O)N2 (stereo not given)", "TGI", "> 100 µM"),
]

Q. What does the data say about its TGI? Entry: O=C(c1cccs1)N(C(=S)OCCOc1ccccc1)c1ccccc1
A. 33.4 µM

Q. What does the data say about its TGI? Entry: Fc1ccc(N2C(=S)SC(=Nc3ccccc3)C2=Nc2ccccc2)cc1
A. > 100 µM

Q. What does the data say about its TGI? Entry: N#Cc1nc(-c2ccco2)oc1N
A. > 10 µM

Q. What does the data say about its TGI? Entry: O=[N+]([O-])c1ccc(C(=S)Nc2ccccc2)o1
A. 9.53 µM

---

Tested on: UACC-257 melanoma
assay.explanation: NCI tumour cell line growth inhibition, 48 h
Overview of recorded TGI for various compounds

# compound, TGI
data = [
    ("c1ccc2c(c1)Nc1ccncc1S2", "> 100 µM"),
    ("Nc1nc(Nc2ccccc2)c2[nH]cnc2n1", "> 100 µM"),
    ("COCOCC/C=C/C=O", "> 100 µM"),
]

Q. What does the data say about its TGI? Entry: CCOP1(=O)C=C(C)C(Cl)=C(C)C1 (centres undefined)
A. 88.7 µM

Q. What does the data say about its TGI? Entry: O=c1[nH]cc(F)c(=O)n1C1OC(CO)C(O)C1O (centres undefined)
A. > 100 µM

Q. What does the data say about its TGI? Entry: CN1C(c2ccccc2)CC(=O)C(N)C1c1ccccc1 (centres undefined)
A. > 87.1 µM

Q. What does the data say about its TGI? Entry: O=C(c1cccs1)N(C(=S)OCCOc1ccccc1)c1ccccc1
A. 69.9 µM

Q. What does the data say about its TGI? Entry: C=C1CC(c2ccc(OCCCN3C(=O)c4ccccc4C3=O)cc2)OC1=O (centres undefined)
A. 7.55 µM

Q. What does the data say about its TGI? Entry: CC(=O)Oc1ccc(/C=C/C(=O)OCCCOC(=O)/C=C/c2ccc(OC(C)=O)c(OC(C)=O)c2)cc1OC(C)=O
A. > 100 µM

Q. What does the data say about its TGI? Entry: Nc1[nH]c(=O)nc2c1cnn2C1CCCCO1 (centres undefined)
A. > 100 µM

Q. What does the data say about its TGI? Entry: Cc1cc(C#Cc2ccc(C(C)(C)C)cc2)ccc1-n1c(/C=C/c2ccc(O)cc2O)nc2ccccc2c1=O
A. 20.4 µM

Q. What does the data say about its TGI? Entry: Cc1cc(C)nc(NS(=O)(=O)c2ccc(NC(=O)c3cccc4c(Nc5ccc(S(=O)(=O)Nc6cc(C)on6)cc5)c5ccccc5nc34)cc2)n1
A. 47.2 µM

---

System: U251 CNS
// one of 1 (yes) (active), 0 (no) (inactive), no free text

# compound, category
records = [
    ("CC1=C(CC(=O)c2cccc([N+](=O)[O-])c2)C(=O)c2ccccc2C1=O", "0 (no)"),
]

Q. Outcome? COC(=O)[C@H]1CCCN1C(=O)[C@H]1CCCN1C(=O)[C@@H](Cc1c[nH]c2ccccc12)NC(=S)Nc1cc(C(F)(F)F)cc(C(F)(F)F)c1
A. 0 (no)

Q. Outcome? C[C@]12CC[C@@H]3c4cc(OC(F)F)c(OS(N)(=O)=O)cc4CC[C@H]3[C@@H]1CC[C@@H]2O
A. 0 (no)

Q. Outcome? COc1ccc(/C=C(\C#N)n2nnc3c(F)cccc32)cc1
A. 1 (yes)

Q. Outcome? C#CCNC(=O)[C@H](CC)[C@H]1CC[C@H](C)[C@H]([C@@H](C)[C@H](O)[C@H](C)C(=O)[C@H](CC)C2O[C@]3(C=CC(=O)[C@]4(CC[C@@](C)([C@H]5CC[C@](O)(CC)[C@H](C)O5)O4)O3)[C@H](C)C[C@@H]2C)O1 (some centres not stated)
A. 0 (no)

Q. Outcome? O=C(/C=C/c1cccc(O)c1)c1cccc(-n2cc(-c3ccccc3)[nH]c2=O)c1
A. 0 (no)

Q. Outcome? CN(CCNCc1ccccn1)CCNCc1ccccn1
A. 0 (no)

---

Test system: BT-549 breast
assay.explanation: NCI tumour cell line growth inhibition, 48 h
reported.property: TGI

Q. What does the data say about its TGI? Entry: C[N+](C)(C)c1ncnc2c1ncn2C1CC(O)C(CO)O1 (stereo unspecified)
A. > 100 µM

Q. What does the data say about its TGI? Entry: COC(=O)[C@]1(NC(=O)c2ccccc2)C[C@H]1C=O
A. > 100 µM

---

System: NCI/ADR-RES ovarian
assay.explanation: NCI tumour cell line growth inhibition, 48 h
Overview of recorded TGI for various molecules

# molecule, observed.result
measured = [
    ("COC(=O)c1ccc(S)c(S(=O)(=O)Nc2n[nH]c(N)n2)c1", "> 100 µM"),
]

Q. What does the data say about its TGI? Entry: COC(=O)C(CCSC)NC(=O)CNC(=O)CSc1nnc(COc2ccc(Cl)cc2)n1-c1ccccc1 (centres undefined)
A. > 100 µM

Q. What does the data say about its TGI? Entry: NS(=O)(=O)c1ccc(-c2cc3ccncc3cc2OCc2ccccc2)cc1
A. > 25 µM

Q. What does the data say about its TGI? Entry: CCOC(=O)C(=CNc1ccc(NC2=NCC(C)S2)cc1)C(=O)OCC (centres undefined)
A. 95.1 µM

Q. What does the data say about its TGI? Entry: O=C(O)Cc1cccnc1
A. > 100 µM

Q. What does the data say about its TGI? Entry: Nc1nc(O)c2ncn([C@H]3CC[C@@H](CO)O3)c2n1
A. > 100 µM

Q. What does the data say about its TGI? Entry: [N-]=[N+]=NI1OC(=O)c2ccccc21
A. > 100 µM

Q. What does the data say about its TGI? Entry: O=C(CC1(O)C(=O)N(Cc2ccccc2)c2ccccc21)c1ccc(C(=O)NCC2CCC3(CC2)OOC2(CCCCC2)OO3)cc1 (centres undefined)
A. 3.47 µM

Q. What does the data say about its TGI? Entry: O=C(c1cccs1)N(C(=S)OCCOc1ccccc1)c1ccccc1
A. 57.7 µM
